Entries and their measured IC50 follow.
- assay_target: c-Kit (Homo sapiens, UniProt P10721)
- Sequence (P10721 26-976): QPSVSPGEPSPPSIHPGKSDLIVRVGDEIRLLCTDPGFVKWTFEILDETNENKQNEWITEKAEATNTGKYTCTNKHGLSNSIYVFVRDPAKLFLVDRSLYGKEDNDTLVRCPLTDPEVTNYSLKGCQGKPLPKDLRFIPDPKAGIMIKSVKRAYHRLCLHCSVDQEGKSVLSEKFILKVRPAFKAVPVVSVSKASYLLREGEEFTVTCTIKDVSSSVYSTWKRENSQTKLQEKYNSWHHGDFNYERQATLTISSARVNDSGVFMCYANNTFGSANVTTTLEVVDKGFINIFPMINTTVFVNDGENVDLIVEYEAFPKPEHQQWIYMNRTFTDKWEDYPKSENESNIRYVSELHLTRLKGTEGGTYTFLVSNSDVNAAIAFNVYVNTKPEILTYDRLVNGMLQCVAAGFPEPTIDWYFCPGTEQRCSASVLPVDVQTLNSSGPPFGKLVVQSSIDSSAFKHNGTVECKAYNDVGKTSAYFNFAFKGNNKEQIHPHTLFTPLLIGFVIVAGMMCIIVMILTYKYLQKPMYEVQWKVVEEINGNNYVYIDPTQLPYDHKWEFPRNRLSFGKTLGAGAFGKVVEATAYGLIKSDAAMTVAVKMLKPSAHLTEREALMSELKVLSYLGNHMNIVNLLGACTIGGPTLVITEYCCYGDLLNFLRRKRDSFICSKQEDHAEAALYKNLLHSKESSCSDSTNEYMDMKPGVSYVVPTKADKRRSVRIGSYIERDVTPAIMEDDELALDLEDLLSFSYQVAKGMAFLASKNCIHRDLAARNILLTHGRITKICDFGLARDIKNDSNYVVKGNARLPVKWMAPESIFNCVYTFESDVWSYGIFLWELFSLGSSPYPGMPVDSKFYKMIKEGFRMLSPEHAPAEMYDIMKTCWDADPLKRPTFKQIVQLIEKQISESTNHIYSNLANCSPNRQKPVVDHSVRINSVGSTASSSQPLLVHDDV
- test_details: c-Kit biochemical assay (per US 2007/0032519)

compound: COc1cnc2[nH]cc(-c3ccc4[nH]c(C)nc4c3)c2c1 [P-015]
IC50: 10 to 200 µM

compound: COc1cnc2[nH]cc(-c3ccc4ncn(C(C)C)c4c3)c2c1 [P-050]
IC50: 10 to 200 µM

compound: Cn1cnc2ccc(-c3c[nH]c4ncc(C#N)cc34)cc21 [P-020]
IC50: 10 to 200 µM

compound: COc1cnc2[nH]cc(-c3ccc4ncn(C(C)(C)C)c4c3)c2c1 [P-074]
IC50: 1 to 10 µM

compound: Cn1cnc2ccc(-c3c[nH]c4ncc(F)cc34)cc21 [P-028]
IC50: 10 to 200 µM

compound: Cc1nn(C)cc1-c1ccc(-c2cnc3[nH]cc(-c4ccc5ncn(C(C)(C)C)c5c4)c3n2)cc1 [P-323]
IC50: 1 to 10 µM

compound: CC(C)(O)C#Cc1cnc2[nH]cc(-c3ccc4ncn(C(C)(C)C)c4c3)c2n1 [P-377]
IC50: 1 to 10 µM

compound: COc1cnc2[nH]cc(-c3ccc4ncn(CC(F)(F)F)c4c3)c2c1 [P-047]
IC50: 1 to 10 µM

compound: CS(=O)(=O)Nc1cccc(-c2cnc3[nH]cc(-c4ccc5ncn(CC(F)(F)F)c5c4)c3n2)c1 [P-069]
IC50: 10 to 200 µM

compound: Cn1cnc2ccc(-c3c[nH]c4ncc(-c5cccc(S(=O)(=O)N6CCCC6)c5)cc34)cc21 [P-122]
IC50: 1 to 10 µM

compound: O=C(C1CC1)N1CCC=C(c2cnc3[nH]cc(-c4ccc5[nH]cnc5c4)c3c2)C1 [P-033]
IC50: 10 to 200 µM

compound: Cn1cnc2ccc(-c3c[nH]c4ncc(-c5cccc(OC(F)(F)F)c5)cc34)cc21 [P-131]
IC50: 10 to 200 µM

compound: N#Cc1cnc2[nH]cc(-c3ccc4nc[nH]c4c3)c2c1 [P-023]
IC50: 1 to 10 µM

compound: COc1cnc2[nH]cc(-c3ccc4ncnc(OC)c4c3)c2c1 [P-043]
IC50: 1 to 10 µM

compound: COc1cnc2[nH]cc(-c3ccc4[nH]cnc4c3)c2c1 [P-002]
IC50: 1 to 10 µM

compound: COc1cnc2[nH]cc(-c3ccc4ncn(C5CCC5)c4c3)c2c1 [P-061]
IC50: 1 to 10 µM

compound: CC(C)(C)n1cnc2ccc(-c3c[nH]c4ncc(-c5ccc(C(=O)O)nc5)nc34)cc21 [P-376]
IC50: 0.0001 to 1 µM

compound: c1cnc2[nH]cc(-c3ccc4[nH]cnc4c3)c2c1 [P-004]
IC50: 1 to 10 µM

compound: Cc1ccc(-c2cnc3[nH]cc(-c4ccc5ncn(C(C)(C)C)c5c4)c3n2)cn1 [P-388]
IC50: 0.0001 to 1 µM

compound: Cc1cnc2[nH]cc(-c3ccc4ncn(C)c4c3)c2c1 [P-018]
IC50: 1 to 10 µM

compound: COc1cnc2[nH]cc(-c3ccc4ncn(C)c4c3)c2c1 [P-016]
IC50: 10 to 200 µM

compound: Cc1nc2cc(-c3c[nH]c4ncccc34)ccc2[nH]1 [P-012]
IC50: 10 to 200 µM

compound: CC(C)(C)n1cnc2ccc(-c3c[nH]c4ncc(-c5cnc(F)c(F)c5)nc34)cc21 [P-390]
IC50: 10 to 200 µM

compound: COc1ccc(-c2cnc3[nH]cc(-c4ccc5ncn(C)c5c4)c3n2)cn1 [P-041]
IC50: 1 to 10 µM

compound: CN1CCOc2ccc(-c3c[nH]c4ncc(-c5cccc(NS(C)(=O)=O)c5)nc34)cc21 [P-065]
IC50: 10 to 200 µM

compound: O=C(C1CC1)N1CC=C(c2cnc3[nH]cc(-c4ccc5ncn(CC(F)(F)F)c5c4)c3c2)C1 [P-133]
IC50: 1 to 10 µM

compound: CC(C)(C)n1cnc2ccc(-c3c[nH]c4ncc(-c5ccnc(C#N)c5)nc34)cc21 [P-301]
IC50: 10 to 200 µM

compound: COc1cnc2[nH]cc(-c3ccc4ncn(-c5cccc(F)c5)c4c3)c2c1 [P-128]
IC50: 10 to 200 µM

compound: CS(=O)(=O)Nc1cccc(-c2cnc3[nH]cc(-c4ccc5ncn(C6CCCC6)c5c4)c3c2)c1 [P-066]
IC50: 0.0001 to 1 µM

compound: CS(=O)(=O)Nc1ccc(-c2cnc3[nH]cc(-c4ccc5ncsc5c4)c3n2)cc1 [P-076]
IC50: 1 to 10 µM

compound: c1nc2cc(-c3c[nH]c4ncc(OCC5CC5)cc34)ccc2[nH]1 [P-007]
IC50: 1 to 10 µM

compound: CC(C)(C)n1cnc2ccc(-c3c[nH]c4ncc(-c5cnc(NS(C)(=O)=O)nc5)nc34)cc21 [P-404]
IC50: 1 to 10 µM

compound: CC(C)(C)n1cnc2ccc(-c3c[nH]c4ncc(-c5cnc(C(N)=O)c(Cl)c5)nc34)cc21 [P-364]
IC50: 1 to 10 µM

compound: CCCS(=O)(=O)Nc1cccc(-c2cnc3[nH]cc(-c4ccc5ncn(C)c5c4)c3c2)c1 [P-121]
IC50: 1 to 10 µM

compound: COc1cc(-c2cnc3[nH]cc(-c4ccc5ncn(C)c5c4)c3c2)ccc1C#N [P-117]
IC50: 1 to 10 µM

compound: Cn1cnc2ccc(-c3c[nH]c4ncc(-c5cccc(N6CCCS6(=O)=O)c5)cc34)cc21 [P-093]
IC50: 1 to 10 µM

compound: CCS(=O)(=O)Nc1cccc(-c2cnc3[nH]cc(-c4ccc5ncn(C)c5c4)c3c2)c1 [P-094]
IC50: 1 to 10 µM
